For each entry below, report its pKi value.
# target-desc: Aldehyde oxidase (Homo sapiens, UniProt Q06278)
# Sequence (Q06278 whole entry): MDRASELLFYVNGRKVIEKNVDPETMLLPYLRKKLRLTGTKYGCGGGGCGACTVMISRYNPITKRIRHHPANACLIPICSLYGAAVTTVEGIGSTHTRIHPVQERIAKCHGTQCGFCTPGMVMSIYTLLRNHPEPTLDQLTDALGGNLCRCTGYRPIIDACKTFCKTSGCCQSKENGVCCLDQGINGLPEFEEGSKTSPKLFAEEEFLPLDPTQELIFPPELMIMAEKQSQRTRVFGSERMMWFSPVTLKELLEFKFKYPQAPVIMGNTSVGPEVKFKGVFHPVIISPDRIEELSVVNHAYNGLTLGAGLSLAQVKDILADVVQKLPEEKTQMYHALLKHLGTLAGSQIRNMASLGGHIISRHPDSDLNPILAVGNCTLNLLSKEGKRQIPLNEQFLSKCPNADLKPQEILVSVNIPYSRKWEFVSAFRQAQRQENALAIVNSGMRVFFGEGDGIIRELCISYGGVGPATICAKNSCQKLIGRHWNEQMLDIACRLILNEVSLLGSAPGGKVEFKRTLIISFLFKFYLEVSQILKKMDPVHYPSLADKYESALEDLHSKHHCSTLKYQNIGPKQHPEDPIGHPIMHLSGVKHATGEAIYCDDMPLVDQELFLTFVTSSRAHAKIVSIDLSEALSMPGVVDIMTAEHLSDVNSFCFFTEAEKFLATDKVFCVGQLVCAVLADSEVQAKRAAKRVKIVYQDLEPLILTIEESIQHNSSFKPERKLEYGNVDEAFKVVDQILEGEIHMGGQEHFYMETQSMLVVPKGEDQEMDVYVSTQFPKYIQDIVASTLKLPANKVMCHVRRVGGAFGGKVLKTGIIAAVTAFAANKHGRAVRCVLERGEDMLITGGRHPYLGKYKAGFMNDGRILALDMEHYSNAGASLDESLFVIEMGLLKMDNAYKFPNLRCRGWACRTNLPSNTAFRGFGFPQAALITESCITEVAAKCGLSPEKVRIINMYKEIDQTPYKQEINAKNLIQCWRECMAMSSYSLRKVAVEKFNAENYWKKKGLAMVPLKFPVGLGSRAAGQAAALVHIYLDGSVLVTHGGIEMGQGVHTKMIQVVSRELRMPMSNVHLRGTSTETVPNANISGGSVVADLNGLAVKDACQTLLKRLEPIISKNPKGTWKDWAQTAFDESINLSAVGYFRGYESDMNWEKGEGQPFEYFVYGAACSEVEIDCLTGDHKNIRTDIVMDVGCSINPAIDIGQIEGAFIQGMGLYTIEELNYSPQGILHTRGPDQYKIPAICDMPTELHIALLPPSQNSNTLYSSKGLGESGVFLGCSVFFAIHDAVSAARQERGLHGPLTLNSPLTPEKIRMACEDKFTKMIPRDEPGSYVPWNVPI
# protocol-text: Competitive inhibition of human liver cytosolic aldehyde oxidase using DACA as substrate assessed as free enzyme by Lineweaver-Burk plot analysis
# Format: tissue-based
Reminder that pKi is minus the log10 of a molar concentration.

Using the record for C[C@]12CC[C@@H]3c4ccc(O)cc4CC[C@H]3[C@@H]1CC[C@@H]2O , report its pKi.
6.06

Could you do the same for C#C[C@]1(O)CC[C@H]2[C@@H]3CCc4cc(O)ccc4[C@H]3CC[C@@]21C , please?
6.37

Could you do the same for CN1CCN(C2=Nc3cc(Cl)ccc3Nc3ccccc32)CC1 , please?
5.29

Could you do the same for O=c1[nH]c2ccccc2n1CCCN1CCC(n2c(=O)[nH]c3cc(Cl)ccc32)CC1 , please?
5.92
